Cited source: patent US20220133722A1

protocolDetails: Part 1 PK study: single oral 200 mg dose, fed (high-fat meal) versus fasted
Format: in vivo, human
assaySetup: female, human, plasma, po, 200 mg, single oral 200 mg, fed (high-fat meal); median; read-out: Vz/F

{"smiles": "c1cnc(NCc2ccc(CNc3ncccn3)cc2)nc1", "Vd/F [L]": 233}

----------
protocolDetails: Part 2 PK study: 200 mg QD versus 100 mg BID for 10 days under fed conditions
Assay type: in vivo, human
assaySetup: human, plasma, oral, 200 mg, 200 mg QD, fed, Day 10; median; read-out: AUC0-tau
parameter: AUC (ng·h/mL)

{"compound": "c1cnc(NCc2ccc(CNc3ncccn3)cc2)nc1 [Q-122]", "unitInfo": "ng·h/mL", "measuredResult": 9830}

----------
protocolDetails: Part 2 PK study: 200 mg QD versus 100 mg BID for 10 days under fed conditions
Assay type: in vivo, human
assaySetup: human, plasma, oral, 200 mg, 200 mg QD, fed, Day 10; mean; read-out: Tmax

{"molecule": "c1cnc(NCc2ccc(CNc3ncccn3)cc2)nc1 [Q-122]", "unitInfo": "h", "Tmax": 3.33}

----------
protocolDetails: Part 2 PK study: 200 mg QD versus 100 mg BID for 10 days under fed conditions
Format: in vivo, human
assaySetup: human, plasma, oral, 100 mg, 100 mg BID, fed, Day 1; median

{"compound": "c1cnc(NCc2ccc(CNc3ncccn3)cc2)nc1 [Q-122]", "AUC(0-t)": "6640 ng·h/mL"}

----------
protocolDetails: Part 1 PK study: single oral 200 mg dose, fed (high-fat meal) versus fasted
Type: in vivo, human
assaySetup: female, human, plasma, po, 200 mg, single oral 200 mg, fasted; mean
parameter: half-life (h)

{"compound": "c1cnc(NCc2ccc(CNc3ncccn3)cc2)nc1 [Q-122]", "measuredResult": 21.4}

----------
protocolDetails: Part 1 PK study: single oral 200 mg dose, fed (high-fat meal) versus fasted
Format: in vivo, human
assaySetup: female, human, plasma, po, 200 mg, single oral 200 mg, fed (high-fat meal); mean
parameter: AUC(0-t)

{"smiles": "c1cnc(NCc2ccc(CNc3ncccn3)cc2)nc1", "measuredResult": "10200 ng·h/mL"}

----------
protocolDetails: Part 2 PK study: 200 mg QD versus 100 mg BID for 10 days under fed conditions
Type: in vivo, human
assaySetup: human, plasma, oral, 200 mg, 200 mg QD, fed, Day 10; median; read-out: Vz/F

{"smiles": "c1cnc(NCc2ccc(CNc3ncccn3)cc2)nc1", "Vd/F (L)": 490}

----------
protocolDetails: Part 1 PK study: single oral 200 mg dose, fed (high-fat meal) versus fasted
Type: in vivo, human
assaySetup: female, human, plasma, po, 200 mg, single oral 200 mg, fasted; median; read-out: Tmax
parameter: Tmax (h)

{"smiles": "c1cnc(NCc2ccc(CNc3ncccn3)cc2)nc1", "measuredResult": 1.25}

----------
protocolDetails: Part 2 PK study: 200 mg QD versus 100 mg BID for 10 days under fed conditions
Type: in vivo, human
assaySetup: human, plasma, oral, 200 mg, 200 mg QD, fed, Day 1; median; read-out: Cmax

{"smiles": "c1cnc(NCc2ccc(CNc3ncccn3)cc2)nc1", "Cmax, ng/mL": 1560}

----------
protocolDetails: Part 1 PK study: single oral 200 mg dose, fed (high-fat meal) versus fasted
Format: in vivo, human
assaySetup: female, human, plasma, po, 200 mg, single oral 200 mg, fasted; mean; read-out: Vz/F

{"compound": "c1cnc(NCc2ccc(CNc3ncccn3)cc2)nc1 [Q-122]", "Vd/F / L": 874}

----------
protocolDetails: Part 2 PK study: 200 mg QD versus 100 mg BID for 10 days under fed conditions
Format: in vivo, human
assaySetup: human, plasma, oral, 200 mg, 200 mg QD, fed, Day 1; individual subjects; read-out: Tmax

{"smiles": "c1cnc(NCc2ccc(CNc3ncccn3)cc2)nc1", "Tmax (h)": 3}

----------
protocolDetails: Part 2 PK study: 200 mg QD versus 100 mg BID for 10 days under fed conditions
Type: in vivo, human
assaySetup: human, plasma, oral, 100 mg, 100 mg BID, fed, Day 10; individual subjects; read-out: Cmax
Excerpt: Part 2 involved analysing the PK parameters obtained following either single (QD) or twice daily (BD) dosing of a compound of formula (Ia) under fed conditions. […] For both Parts 1 and 2, samples were processed and analysed as follows. […] The analytes were separated by HPLC on a Phenomenex Synergi Polar-RP column, and the eluates monitored by an API4000 MS/MS detector in positive MRM mode. […]

{"smiles": "c1cnc(NCc2ccc(CNc3ncccn3)cc2)nc1", "Cmax / ng/mL": 1300}

----------
protocolDetails: Part 2 PK study: 200 mg QD versus 100 mg BID for 10 days under fed conditions
Type: in vivo, human
assaySetup: human, plasma, oral, 100 mg, 100 mg BID, fed, Day 10; mean; read-out: t½ (converted)
parameter: half-life (h)

{"molecule": "c1cnc(NCc2ccc(CNc3ncccn3)cc2)nc1 [Q-122]", "parameter": "half-life", "measuredResult": 11.8}

----------
protocolDetails: Part 1 PK study: single oral 200 mg dose, fed (high-fat meal) versus fasted
Type: in vivo, human
assaySetup: female, human, plasma, po, 200 mg, single oral 200 mg, fasted; median

{"smiles": "c1cnc(NCc2ccc(CNc3ncccn3)cc2)nc1", "half-life, min": 1380}

----------
protocolDetails: Part 1 PK study: single oral 200 mg dose, fed (high-fat meal) versus fasted
Format: in vivo, human
assaySetup: female, human, plasma, po, 200 mg, single oral 200 mg, fed (high-fat meal); mean; read-out: Vz/F
parameter: Vd/F (L)

{"compound": "c1cnc(NCc2ccc(CNc3ncccn3)cc2)nc1 [Q-122]", "unitInfo": "L", "measuredResult": 404}

----------
protocolDetails: Part 1 PK study: single oral 200 mg dose, fed (high-fat meal) versus fasted
Type: in vivo, human
assaySetup: female, human, plasma, po, 200 mg, single oral 200 mg, fed (high-fat meal); median
parameter: AUC(0-t) (ng·h/mL)

{"molecule": "c1cnc(NCc2ccc(CNc3ncccn3)cc2)nc1 [Q-122]", "measuredResult": 11300}

----------
protocolDetails: Part 1 PK study: single oral 200 mg dose, fed (high-fat meal) versus fasted
Type: in vivo, human
assaySetup: female, human, plasma, po, 200 mg, single oral 200 mg, fed (high-fat meal); median; read-out: Tmax
Method: Part 1 involved analysing the PK parameters obtained following single oral administration of 200 mg tablets of a compound of formula (Ia) in free base form to 12 healthy female subjects following either fed (high-fat meal) or fasted conditions. […] For both Parts 1 and 2, samples were processed and analysed as follows. […] The analytes were separated by HPLC on a Phenomenex Synergi Polar-RP column, and the eluates monitored by an API4000 MS/MS detector in positive MRM mode. […]
parameter: Tmax

{"smiles": "c1cnc(NCc2ccc(CNc3ncccn3)cc2)nc1", "measuredResult": "8 h"}

----------
protocolDetails: Part 1 PK study: single oral 200 mg dose, fed (high-fat meal) versus fasted
Type: in vivo, human
assaySetup: female, human, plasma, po, 200 mg, single oral 200 mg, fasted; mean
Method: Part 1 involved analysing the PK parameters obtained following single oral administration of 200 mg tablets of a compound of formula (Ia) in free base form to 12 healthy female subjects following either fed (high-fat meal) or fasted conditions. […] For both Parts 1 and 2, samples were processed and analysed as follows. […] The analytes were separated by HPLC on a Phenomenex Synergi Polar-RP column, and the eluates monitored by an API4000 MS/MS detector in positive MRM mode. […]

{"smiles": "c1cnc(NCc2ccc(CNc3ncccn3)cc2)nc1", "unitInfo": "ng·h/mL", "AUC(0-inf)": 7380}

----------
protocolDetails: Part 2 PK study: 200 mg QD versus 100 mg BID for 10 days under fed conditions
Type: in vivo, human
assaySetup: human, plasma, oral, 200 mg, 200 mg QD, fed, Day 10; mean; read-out: AUC0-tau
parameter: AUC (ng·h/mL)

{"smiles": "c1cnc(NCc2ccc(CNc3ncccn3)cc2)nc1", "parameter": "AUC", "measuredResult": 8850}

----------
protocolDetails: Part 2 PK study: 200 mg QD versus 100 mg BID for 10 days under fed conditions
Type: in vivo, human
assaySetup: human, plasma, oral, 200 mg, 200 mg QD, fed, Day 1; median; read-out: Tmax

{"smiles": "c1cnc(NCc2ccc(CNc3ncccn3)cc2)nc1", "Tmax / h": 3}

----------
protocolDetails: Part 2 PK study: 200 mg QD versus 100 mg BID for 10 days under fed conditions
Assay type: in vivo, human
assaySetup: human, plasma, oral, 200 mg, 200 mg QD, fed, Day 1; mean; read-out: Cmax

{"molecule": "c1cnc(NCc2ccc(CNc3ncccn3)cc2)nc1 [Q-122]", "unitInfo": "µg/mL", "Cmax": 1.35}
